tested on: Plasmodium berghei; assay: Screen against P. berghei liver stage (PbLuc), transformed with Luciferase, at 10uM; assay type: functional, HepG2; settings: tested at 10 uM
The whole screen tested about 69,000 compounds, of which about 8,600 (12%) showed an effect of 50% or more. For the sample, strong results were picked, then their nearest neighbours and some compounds at random.
Kindly apply the following: Yes if INHIBITION is less than 30%, No in every other case.

Use these answered entries as a reference point.
{"columns": ["compound", "cat"],
 "data": [
  ["O=C(c1ccncc1)N1CC2(CCNCC2)c2cc(Cl)ccc21", "Yes"],
  ["CC(C)CC(=O)NS(=O)(=O)c1ccc(C#N)cc1C(F)(F)F", "Yes"],
  ["Cc1n[nH]c2c1C(c1ccc(Cl)cc1)SCC(=O)N2 (stereo unspecified)", "No"],
  ["O=C([C@H]1CCCN1)N1CC2(CCNCC2)c2cc(Cl)ccc21", "No"],
  ["Cc1ccc(C(=O)N2Cc3c(CN4CCCCC4)nn(C)c3C2)o1", "Yes"],
  ["Cc1nn(C)c(C)c1-c1cnc(CC2CCNC2)cn1 (stereo unspecified)", "Yes"],
  ["Cc1ccc(N2CCOC(C)(C(=O)N(C)C)C2)nn1 (stereo unspecified)", "Yes"],
  ["COCC1CCN(C(=O)c2cn(Cc3ccccc3C(F)(F)F)nn2)C1 (stereo unspecified)", "Yes"]
]}

# strict comparison: is reported INHIBITION < 30%? input = `CCCN1CCC(CC(=O)N[C@H](C(=O)O)c2cccc(F)c2F)CC1` No

Is it true that INHIBITION reported for `CN(C)C(=O)N1CC2(CCNCC2)c2cc(Cl)ccc21` is less than 30%? No

Please let me know if CCN1CCC2(CC1)CC(NC(=O)N(C)C)c1cc(C)ccc12 (stereo unspecified) shows INHIBITION below 30%. Yes

----------
Task for the reader: assign each of the following compounds its reported INHIBITION.
tested on: Plasmodium berghei; assay: Screen against P. berghei liver stage (PbLuc), transformed with Luciferase, at 10uM; type: functional, HepG2; settings: tested at 10 uM
Hit rate of the full screen: of about 69,000 compounds, about 8,600 (12%) showed an effect of 50% or more. The full list was thinned out, with strong results kept by preference.
One number for each entry, in %.

Below, each entry is followed by its recorded INHIBITION result.
{"columns": ["chemSmiles", "INHIBITION / %"],
 "data": [
  ["CN(Cc1ccco1)[C@@H]1CN(Cc2ccc(F)cc2)[C@@H]2CCCO[C@H]12", 81.2],
  ["CCn1nc(C)c(CN(C)S(=O)(=O)c2cnn(C)c2)c1C", 6.83],
  ["Cc1nn(C)c(C)c1S(=O)(=O)N(C)Cc1nn(C)c(Cl)c1Cl", 54.5],
  ["CN(Cc1ccco1)[C@@H]1CN(Cc2ccco2)[C@@H]2CCCO[C@H]12", 15.4]
]}

For each of the items listed, what is its INHIBITION?
1. Cc1noc(C)c1S(=O)(=O)N(C)Cc1nn(C)c(Cl)c1Cl
2. CC(=O)N1CCN(C(=O)c2ccc3ccn(C)c3c2)CC1

1. 15.9
2. 63.3

----------
test system: Plasmodium berghei; assay: Screen against P. berghei liver stage (PbLuc), transformed with Luciferase, at 10uM; assay type: functional, HepG2; conditions: tested at 10 uM
Screen size: about 69,000 compounds; about 8,600 (12%) showed an effect of 50% or more. Many of the other results were omitted from the sample, so strong results are more common in it than they were.
metricName: INHIBITION
Entry format: amount then unit.

A selection of reference data follows.
{"columns": ["molecule", "measuredValue"],
 "data": [
  ["CN1CCC(N(C)C[C@H]2CC[C@@H](Cc3ccc4c(cnn4C)c3)O2)CC1", "14.9%"],
  ["Cc1nc2ccccn2c1CC(=O)N[C@@H]1CC[C@@H](N2CCCC2)[C@@H]1O", "-6.92%"],
  ["O=C(c1ccsc1)N1CC[C@@H](N2CCOCC2)[C@@H]1Cc1ccccc1", "-2.72%"],
  ["CCOc1nc2cnccc2n(CC(=O)NCCc2ccccc2)c1=O", "33.9%"],
  ["N#CCc1ccc(NC(=O)Cn2cc(I)cn2)cc1", "36.6%"]
]}

For the 2 molecules below, give their INHIBITION values.
1. O=C(NC1CCN(c2ncccc2F)C1)c1cccc(-n2ccnn2)c1 (stereo unspecified)
2. CCN(C)C[C@H]1CC[C@@H](Cc2ccc3c(cnn3C)c2)O1

-20.8%
58.2%
